# credit: patent US20190248739A1

- Experiment: pharmacokinetic testing of indoximod salts in capsule formulation in rats
- Assay type: in vivo
- Test settings: capsules, 185 μmol/kg
Structures can show the parent of a compound that is named as a salt.
Value kind: Cmax (µM)
Give just the number in µM; leave the unit off.

Cmax for Cn1cc(C[C@@H](N)C(=O)O)c2ccccc21 [indoximod HCl] ?
38.4

* * *

- Experiment: pharmacokinetic testing of indoximod salts in capsule formulation in rats
- Assay type: in vivo
- Test settings: rat, plasma, po, 37 umol/kg, capsules
Value kind: AUC(0-inf) (µM·h)
Value expressed in µM·h; do not type the unit.

Query: AUC(0-inf); subject: Cn1cc(C[C@@H](N)C(=O)O)c2ccccc21 [indoximod, 1-methyl-D-tryptophan, reference compound]
390

* * *

- Experiment: pharmacokinetic testing of indoximod salts in capsule formulation in rats
- Format: in vivo
- Test settings: capsules, 500 μmol/kg
Where a name gives a salt, the structure may show the parent alone.
Value kind: Cmax (µM)
Provide the reading as a plain figure in µM.

// lookup Cmax for Cn1cc(C[C@@H](N)C(=O)O)c2ccccc21 [indoximod HCl]
44.4

* * *

- Experiment: indoximod plasma exposure in murine antitumor experiments
- Format: in vivo
- Test settings: mouse, plasma; mice, drinking water 3 mg/mL (~500 mg/kg/day) or oral 200 mg/kg bid
Value kind: Cmax

Query (molecule): Cn1cc(C[C@@H](N)C(=O)O)c2ccccc21 [indoximod, 1-methyl-D-tryptophan, reference compound] ; field requested: Cmax
> 20 µM

* * *

- Experiment: pharmacokinetic testing of indoximod prodrug salts in solid capsule formulation in rats
- Format: in vivo
- Test settings: Table 10.3; indoximod; rats, oral capsules; dose 500 μmol/kg; salt form free base
Value kind: Cmax (µM)
Numbers only; they are read as µM.

Suppose we examine the compound Cn1cc(C[C@@H](N)C(=O)O)c2ccccc21 [indoximod, 1-methyl-D-tryptophan, reference compound] ; what Cmax value has been reported?
76.2

* * *

- Experiment: crossover pharmacokinetic study of indoximod free base, salts and SDD in cynomolgus monkeys
- Type: in vivo
- Test settings: male, cynomolgus monkey, plasma, po, 275 umol/kg
- Protocol: The SDD suspension formulations were prepared in 0.5% methylcellulose (Methocel).
Value kind: Cmax (µM)
Numeric answer only, unit µM assumed.

If you can, please state the reported Cmax value of Cn1cc(C[C@@H](N)C(=O)O)c2ccccc21 [indoximod, 1-methyl-D-tryptophan, reference compound] .
12.9

* * *

- Experiment: solubility of indoximod and its salts in water, buffers and SGF
- Format: physicochemical
- Test settings: aqueous solutions, buffered or un-buffered, pH 2, aqueous buffer, pH 2-8
Value kind: solubility

I am curious: what solubility value has been reported for Cn1cc(C[C@@H](N)C(=O)O)c2ccccc21 [indoximod, 1-methyl-D-tryptophan, reference compound] ?
1800 to 2000 µg/mL

* * *

- Experiment: pharmacokinetic testing of indoximod salts in capsule formulation in rats
- Format: in vivo
- Test settings: capsules, 37 μmol/kg, methanesulfonate
Value kind: Cmax (µM)
Please reply with the bare figure in µM and do not write the unit itself.

Please give the measured Cmax for this compound: Cn1cc(C[C@@H](N)C(=O)O)c2ccccc21 [indoximod CH3SO3H, methanesulfonate]
20.3

* * *

- Experiment: human pharmacokinetics of oral indoximod
- Type: in vivo
- Test settings: plasma
Value kind: half-life

Value lookup for half-life; key = Cn1cc(C[C@@H](N)C(=O)O)c2ccccc21 [indoximod, 1-methyl-D-tryptophan, reference compound]
~10 h

* * *

- Experiment: pharmacokinetic testing of indoximod salts in capsule formulation in rats
- Format: in vivo
- Test settings: rat, plasma, po, 500 umol/kg, capsules
Value kind: AUC(0-inf)

Which AUC(0-inf) value belongs to Cn1cc(C[C@@H](N)C(=O)O)c2ccccc21 [indoximod, 1-methyl-D-tryptophan, reference compound] ?
2870 µM·h

* * *

- Experiment: pharmacokinetic testing of indoximod prodrug salts in solid capsule formulation in rats
- Format: in vivo
- Test settings: rat, plasma, po, 185 umol/kg
Value kind: AUC(0-inf) (µM·h)
Respond numerically; units are µM·h and should not be typed.

So what does the record say about AUC(0-inf) for Cn1cc(C[C@@H](N)C(=O)O)c2ccccc21 [indoximod, 1-methyl-D-tryptophan, reference compound] ?
1080

* * *

- Experiment: crossover pharmacokinetic study of indoximod free base, salts and SDD in cynomolgus monkeys
- Format: in vivo
- Test settings: male, cynomolgus monkey, plasma, po, 275 umol/kg, oral, 275 μmol/kg, read-out: AUC(0 −> 48 h)
Value kind: AUC(0-t) (µM·h)
Write the number in µM·h without appending the unit.

Item Cn1cc(C[C@@H](N)C(=O)O)c2ccccc21 [indoximod, 1-methyl-D-tryptophan, reference compound] has what recorded AUC(0-t)?
66

* * *

- Experiment: pharmacokinetic testing of indoximod salts in capsule formulation in rats
- Assay type: in vivo
- Test settings: capsules, 37 μmol/kg, hydrogen sulfate
Counter-ions that a name gives are not always drawn.
Value kind: Cmax (µM)
The figure you give is taken to be in µM; do not add the unit.

Fill in the blank: the reported Cmax of Cn1cc(C[C@@H](N)C(=O)O)c2ccccc21 [indoximod H2SO4, hydrogen sulfate] is ____.
22.6

* * *

- Experiment: pharmacokinetic testing of indoximod prodrugs in liquid formulation in mice
- Test settings: mouse, plasma, po, 10 mg/kg
Value kind: Tmax (min)
The reply should contain only the number, in min.

Item Cn1cc(C[C@@H](N)C(=O)O)c2ccccc21 [indoximod, 1-methyl-D-tryptophan, reference compound] has what recorded Tmax?
30

* * *

- Experiment: pharmacokinetic testing of indoximod prodrugs in liquid formulation in mice
- Test settings: mouse, plasma, po, 10 mg/kg
Value kind: AUC(0-inf) (µM·h)
Unit µM·h implied. Number only.

What value of measured AUC(0-inf) is listed for Cn1cc(C[C@@H](N)C(=O)O)c2ccccc21 [indoximod, 1-methyl-D-tryptophan, reference compound] ?
34

* * *

- Experiment: pharmacokinetic testing of indoximod prodrug salts in solid capsule formulation in rats
- Type: in vivo
- Test settings: Table 10.2; indoximod; rats, oral capsules; dose 185 μmol/kg; salt form free base
Value kind: Cmax (µM)
Response body: numeric value in µM, unit text excluded.

What value of Cmax has been recorded for this entry: Cn1cc(C[C@@H](N)C(=O)O)c2ccccc21 [indoximod, 1-methyl-D-tryptophan, reference compound]
20.8

* * *

- Experiment: human pharmacokinetics of oral indoximod
- Type: in vivo
- Test settings: plasma, patients, up to 800 mg/dose, read-out: drug exposure (AUC(0-last))
Value kind: AUC(0-t)

Which value of AUC(0-t) has been reported for Cn1cc(C[C@@H](N)C(=O)O)c2ccccc21 [indoximod, 1-methyl-D-tryptophan, reference compound] in the records?
~100 µM·h

* * *

- Experiment: pharmacokinetic testing of indoximod prodrug salts in solid capsule formulation in rats
- Format: in vivo
- Test settings: Table 10.2; indoximod; rats, oral capsules; dose 500 μmol/kg; salt form free base
Value kind: Cmax (µM)
Report the figure in µM without appending any unit label.

May I ask what Cmax has been recorded for Cn1cc(C[C@@H](N)C(=O)O)c2ccccc21 [indoximod, 1-methyl-D-tryptophan, reference compound] ?
76.2

* * *

- Experiment: pharmacokinetic testing of indoximod prodrug salts in solid capsule formulation in rats
- Format: in vivo
- Test settings: Table 10.3; indoximod; rats, oral capsules; dose 185 μmol/kg; salt form free base
Value kind: Cmax (µM)
Please give a number only; it is taken to be in µM.

Returns the measured Cmax for the input molecule. Input: Cn1cc(C[C@@H](N)C(=O)O)c2ccccc21 [indoximod, 1-methyl-D-tryptophan, reference compound]
20.8

* * *

- Experiment: pharmacokinetic testing of indoximod prodrug salts in solid capsule formulation in cynomolgous monkeys
- Test settings: monkey, blood, po, 875 umol/kg
Value kind: AUC(0-inf) (µM·h)
// note: answer is a bare numeric in µM·h

Give its AUC(0-inf) value. Item: Cn1cc(C[C@@H](N)C(=O)O)c2ccccc21 [indoximod, 1-methyl-D-tryptophan, reference compound]
165

* * *

- Experiment: crossover pharmacokinetic study of indoximod free base, salts and SDD in cynomolgus monkeys
- Assay type: in vivo
- Test settings: oral, 825 μmol/kg
Where a name gives a salt, the structure may show the parent alone.
Value kind: Cmax (µM)
Field: numeric (µM). Do not append units.

Give its Cmax value. Item: Cn1cc(C[C@@H](N)C(=O)O)c2ccccc21 [indoximod HCl]
33.4

* * *

- Experiment: pharmacokinetic testing of indoximod prodrugs in liquid formulation in mice
- Test settings: mouse, plasma, po, 100 mg/kg
Value kind: half-life
Remember to follow the number with its unit.

Look up half-life: Cn1cc(C[C@@H](N)C(=O)O)c2ccccc21 [indoximod, 1-methyl-D-tryptophan, reference compound]
210 min

* * *

- Experiment: pharmacokinetic testing of indoximod prodrugs in liquid formulation in mice
- Test settings: mouse, plasma, po, 100 mg/kg
Value kind: Cmax (µM)
Report only the number, with the unit µM understood.

Item Cn1cc(C[C@@H](N)C(=O)O)c2ccccc21 [indoximod, 1-methyl-D-tryptophan, reference compound] has what recorded Cmax?
43

* * *

- Experiment: human pharmacokinetics of oral indoximod
- Type: in vivo
- Test settings: plasma, po, 800 mg/dose, patients, about 800 mg/dose, read-out: maximum plasma concentration (Cmax)
Value kind: Cmax (µM)
Numeric answer only, unit µM assumed.

Could you tell me which Cmax is on file for Cn1cc(C[C@@H](N)C(=O)O)c2ccccc21 [indoximod, 1-methyl-D-tryptophan, reference compound] ?
15
